Values compiled from the supplement of paper PMC10126150.

Test system: ATP;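 further: ATP exposure 15 min at 22 °C before imaging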
Assay: switch fluorescence ratio, 500 uM ATP over buffer (Cy3 cluster intensity, sum of 5 cycles each) (fold (ratio)); higher = stronger signal-on switching upon ATP binding; sequences stand for … in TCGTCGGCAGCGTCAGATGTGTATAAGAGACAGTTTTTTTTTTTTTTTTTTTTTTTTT…TC
Conditions: aptamer strand: ATP DNA aptamer (quencher-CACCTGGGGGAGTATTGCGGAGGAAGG + anchor), 100 nM annealed; ATP concentration: 500 uM
MEASURED_QUANTITY: switch fluorescence ratio

So, "AGGTTTGTA" ? Its switch fluorescence ratio was 1.04

So, "TTAGAGCGTT" ? Its switch fluorescence ratio was 1.72

So, "GAGCCAGGGA" ? Its switch fluorescence ratio was 1

So, "GTCGATTTAT" ? Its switch fluorescence ratio was 0.986

So, "ATTGGGGGAT" ? Its switch fluorescence ratio was 1.02
